Values compiled from patent US20200115357A1.

# EC50 values compiled below
biological target: GST-LXRβ ligand-binding domain (Homo sapiens, UniProt P55055, DUP175-175); construct: amino acids 156-461; NP009052; experiment: TR-FRETβ activity assay (LXRβ-LBD / NCoA3 coactivator peptide, prestimulated with 24(S)-25-epoxycholesterol); details: 1 μM 24(S)-25-epoxycholesterol as prestimulating agonist; read-out: FRETβ activity range (EC50)
Sequence (P55055 with tags, fused parts or gaps DUP175-175): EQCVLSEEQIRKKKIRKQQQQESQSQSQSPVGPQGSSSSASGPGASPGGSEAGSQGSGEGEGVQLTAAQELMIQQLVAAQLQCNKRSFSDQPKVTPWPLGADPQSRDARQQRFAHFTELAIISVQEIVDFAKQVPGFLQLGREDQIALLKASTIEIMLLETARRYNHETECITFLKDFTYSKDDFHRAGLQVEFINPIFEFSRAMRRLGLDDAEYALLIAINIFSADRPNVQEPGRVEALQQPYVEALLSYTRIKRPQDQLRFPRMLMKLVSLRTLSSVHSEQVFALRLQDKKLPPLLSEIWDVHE

Reference set, count: 2
molecule | EC50
Cc1cc(C)c(S(=O)(=O)N(Cc2ccc(-c3cccc(S(=O)(=O)C(C)C(=O)O)c3)cc2)Cc2ccc(C(F)(F)F)o2)c(C)c1 (stereo not drawn) [Example 5/1] | 1 to 10 µM
COc1ccc(S(=O)(=O)N(Cc2ccc(-c3cccc(S(=O)(=O)CC(=O)O)c3)cc2)Cc2ccc(C(F)(F)F)o2)c2c1CCCC2 [10/10] | 1 to 10 µM

Query molecule follows.
Answer with reported EC50 of Cc1ccc2ccccc2c1S(=O)(=O)N(Cc1ccc(-c2cccc(C(C)(C)C(=O)O)c2)cc1)Cc1cc2ccccc2o1 [10/17] 1 to 10 µM
